Test: AUC in BALB/c mouse at 10 mg/kg, po
Assay type: ADME, organism-based
Design: dose 10 mg/kg, route oral
Details: plasma
Test Readout: AUC (µM·h)
Form entry: value (µM·h) — number only.

Request: I'd like to know its AUC. The compound in question is CCO[C@H]1CN([C@H]2CC[C@@](O)(c3ccc4c(c3)OCO4)CC2)C[C@@H]1NC(=O)CNC(=O)c1cccc(C(F)(F)F)c1
Result: 3.89

###

Assay: Half life in CD-1 mouse at 5 mg/kg, iv
Assay type: ADME, organism-based
Parameters: dose 5 mg/kg, route intravenous
Conditions: in vivo
Test Readout: half-life (h)
Form entry: value (h) — number only.

Request: I'd like to know its half-life. The compound in question is CCO[C@H]1CN([C@H]2CC[C@@](O)(c3ccc4c(c3)OCO4)CC2)C[C@@H]1NC(=O)CNC(=O)c1cccc(C(F)(F)F)c1
Result: 1

###

Target: UniProt P51683
Sequence (P51683 whole entry): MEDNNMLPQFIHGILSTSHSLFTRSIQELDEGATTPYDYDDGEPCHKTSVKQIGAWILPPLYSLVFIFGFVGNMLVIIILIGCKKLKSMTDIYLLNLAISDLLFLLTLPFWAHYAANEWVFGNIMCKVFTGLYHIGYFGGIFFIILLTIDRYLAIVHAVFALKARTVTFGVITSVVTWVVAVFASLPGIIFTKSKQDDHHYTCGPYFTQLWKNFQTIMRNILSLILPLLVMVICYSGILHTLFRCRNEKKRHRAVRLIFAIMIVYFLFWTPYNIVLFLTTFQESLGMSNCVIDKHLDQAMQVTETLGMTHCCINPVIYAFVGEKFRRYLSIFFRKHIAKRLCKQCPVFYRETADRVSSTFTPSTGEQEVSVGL
Test Readout: pIC50
# pIC50 = -log10(concentration in molar units)

Worked examples follow.
smiles_representation=CCO[C@H]1CN([C@H]2CC[C@@](O)(c3ccc(C)cc3)CC2)C[C@@H]1NC(=O)CNC(=O)c1cccc(C(F)(F)F)c1 endpoint_result=8.68
smiles_representation=CCO[C@H]1CN([C@H]2CC[C@@H](c3ccccc3)CC2)C[C@@H]1NC(=O)CNC(=O)c1cccc(C(F)(F)F)c1 endpoint_result=8.72

Request: I'd like to know its pIC50. The compound in question is CCO[C@H]1CN([C@H]2CC[C@@](O)(c3ccccc3)CC2)C[C@@H]1NC(=O)CNC(=O)c1cccc(C(F)(F)F)c1
Result: 8.00

###

Reported pIC50, C-C chemokine receptor type 2 (Homo sapiens).
# pIC50 = -log10(concentration in molar units)

Worked examples follow.
smiles_representation=O=C(CNC(=O)c1cccc(C(F)(F)F)c1)N[C@H]1CN(C2CCN(c3ccccc3)CC2)C[C@@H]1O endpoint_result=6.19
smiles_representation=CCO[C@H]1CN([C@H]2CC[C@@](O)(c3ccccc3)CC2)C[C@@H]1NC(=O)CNC(=O)c1cccc(C(F)(F)F)c1 endpoint_result=8.64

Request: I'd like to know its pIC50. The compound in question is CCO[C@H]1CN([C@H]2CC[C@@H](c3ccccc3)CC2)C[C@@H]1NC(=O)CNC(=O)c1cccc(C(F)(F)F)c1
Result: 9.02

###

Assay: Protein binding in mouse serum assessed as unbound fraction
Format: ADME, cell-free
Conditions: read-out: PB
Readings of fraction unbound for the listed compounds
API note: the answer field is a bare number with no unit suffix.

Worked examples follow.
smiles_representation=CCO[C@H]1CN([C@H]2CC[C@@](O)(c3ccc4c(c3)OCO4)CC2)C[C@@H]1NC(=O)CNC(=O)c1cccc(C(F)(F)F)c1 endpoint_result=0.15
smiles_representation=CCO[C@H]1CN([C@H]2CC[C@@](O)(c3ccccc3)CC2)C[C@@H]1NC(=O)CNC(=O)c1cccc(C(F)(F)F)c1 endpoint_result=0.18

Request: I'd like to know its fraction unbound. The compound in question is CCO[C@H]1CN([C@H]2CC[C@@](O)(c3ccc(C)cc3)CC2)C[C@@H]1NC(=O)CNC(=O)c1cccc(C(F)(F)F)c1
Result: 0.079

Request: # repeat for CCO[C@H]1CN([C@H]2CC[C@@H](c3ccccc3)CC2)C[C@@H]1NC(=O)CNC(=O)c1cccc(C(F)(F)F)c1
Result: 0.023

###

Biological target: CCR2 protein (Macaca fascicularis, UniProt Q6Y3N0)
Sequence (Q6Y3N0 whole entry): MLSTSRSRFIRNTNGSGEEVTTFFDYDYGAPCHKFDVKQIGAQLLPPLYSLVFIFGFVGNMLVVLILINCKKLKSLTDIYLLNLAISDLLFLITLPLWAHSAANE
Test Readout: pIC50
# pIC50 = -log10(concentration in molar units)

Request: I'd like to know its pIC50. The compound in question is CCO[C@H]1CN([C@H]2CC[C@@](O)(c3ccc4c(c3)OCO4)CC2)C[C@@H]1NC(=O)CNC(=O)c1cccc(C(F)(F)F)c1
Result: 7.80

###

Experiment: Oral bioavailability in CD-1 mouse at 10 mg/kg, po
Type: ADME, organism-based
Conditions: in vivo
Test Readout: bioavailability (%)
Form entry: value (%) — number only.

Request: I'd like to know its bioavailability. The molecule in question is CCO[C@H]1CN([C@H]2CC[C@@](O)(c3ccc4c(c3)OCO4)CC2)C[C@@H]1NC(=O)CNC(=O)c1cccc(C(F)(F)F)c1
Result: 47

###

Tested on: Mus musculus
Assay: Volume of distribution at steady state in CD-1 mouse at 5 mg/kg, iv
Assay type: ADME, organism-based
Parameters: dose 5 mg/kg, route intravenous
Conditions: in vivo
Test Readout: Vdss (L/kg)
Form entry: value (L/kg) — number only.

Request: I'd like to know its Vdss. The compound in question is CCO[C@H]1CN([C@H]2CC[C@@](O)(c3ccc4c(c3)OCO4)CC2)C[C@@H]1NC(=O)CNC(=O)c1cccc(C(F)(F)F)c1
Result: 2.8
